# TEST_SYSTEM: Neu5Ac(a2-3)Gal(b1-4)GlcNAc(b1-3)Gal(b1-4)GlcNAc
# TEST_METHOD_NOTES: glycan array binding signal (z-score within array); higher = stronger binding
# CONDITION_DETAILS: glycan notation: IUPAC condensed, linker removed
This is one part of a sample in which the strongest signals are shown more often than they occur.
Each entry below carries its reported glycan array binding signal (z-score).
PROPERTY_NAME: glycan array binding signal (z-score)

binder="SLP (Clostridium difficile), Q183M8 (protein) MATTGTQGYTVVKNDWKKAVKQLQDGLKDNSIGKITVSFNDGVVGEVAPKSANKKADRDAAAEKLYNLVNTQLDKLGDGDYVDFSVDYNLENKIITNQADAEAIVTKLNSLNEKTLIDIATKDTFGMVSKTQDSEGKNVAATKALKVKDVATFGLKSGGSEDTGYVVEMKAGAVEDKYGKVGDSTAGIAINLPSTGLEYAGKGTTIDFNKTLKVDVTGGSTPSAVAVSGFVTKDDTDLAKSGTINVRVINAKEESIDIDASSYTSAENLAKRYVFDPDEISEAYKAIVALQNDGIESNLVQLVNGKYQVIFYPEGKRLETKSLEHHHHHH" readout_value=-0.18
binder="LecB LY19 (Pseudomonas aeruginosa) (protein) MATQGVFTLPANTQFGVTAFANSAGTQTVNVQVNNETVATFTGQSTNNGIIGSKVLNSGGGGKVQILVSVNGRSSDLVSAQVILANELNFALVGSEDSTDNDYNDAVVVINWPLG" readout_value=-0.547
binder="EfCBM33A (Enterococcus faecalis), Q838S1 (protein) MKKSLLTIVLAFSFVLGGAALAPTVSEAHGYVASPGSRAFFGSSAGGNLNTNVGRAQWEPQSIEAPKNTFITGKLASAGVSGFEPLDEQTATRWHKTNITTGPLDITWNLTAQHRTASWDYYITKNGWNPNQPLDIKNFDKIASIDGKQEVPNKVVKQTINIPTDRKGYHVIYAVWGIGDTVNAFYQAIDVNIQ" readout_value=-0.177
